meta.source: patent US20130096170A1

Test: clinical
Details: human, in vivo, t1/2
PARAMETER MEASURED: half-life (h)
Report only the number, with the unit h understood.

Prompt: Look up and state reported half-life for Cc1cccc([C@H](C)c2cnc[nH]2)c1C [dexmedetomidine]
Completion: 8.32

====

Assay: clinical
Conditions: human, plasma, intravenous, Weight-adjusted CL Median, Dose Level 4, LD 1.00/CD 2.00 μg/kg/hr; full evaluable population
PARAMETER MEASURED: clearance (mL/min/kg)
Report only the number, with the unit mL/min/kg understood.

Prompt: Look up and state reported clearance for "Cc1cccc([C@H](C)c2cnc[nH]2)c1C"
Completion: 13.4

====

Assay: clinical
Settings: human, in vivo, 0.05 ug/kg, CLw (clearance)
PARAMETER MEASURED: clearance (mL/min/kg)
Report only the number, with the unit mL/min/kg understood.

Prompt: Look up and state reported clearance for "Cc1cccc([C@H](C)c2cnc[nH]2)c1C"
Completion: 6.83

====

Test: clinical
Settings: human, plasma, intravenous, Vd, Table 30 key summary (mean); Dose Level 3, LD 1.00/CD 0.7 μg/kg/hr; full evaluable population
PARAMETER MEASURED: Vd (L)
Report only the number, with the unit L understood.

Prompt: Look up and state reported Vd for Cc1cccc([C@H](C)c2cnc[nH]2)c1C [dexmedetomidine]
Completion: 52.3

====

Assay: clinical
Settings: human, plasma, intravenous, Weight-adjusted Vd Median, Dose Level 4, LD 1.00/CD 2.00 μg/kg/hr; full evaluable population
PARAMETER MEASURED: Vd (L/kg)
Report only the number, with the unit L/kg understood.

Prompt: Look up and state reported Vd for "Cc1cccc([C@H](C)c2cnc[nH]2)c1C"
Completion: 2.15

====

Assay: clinical
Conditions: human, plasma, intravenous, t1/2, Table 30 key summary (mean); Dose Level 4, LD 1.00/CD 2.00 μg/kg/hr; full evaluable population
PARAMETER MEASURED: half-life (h)
Report only the number, with the unit h understood.

Prompt: Look up and state reported half-life for "Cc1cccc([C@H](C)c2cnc[nH]2)c1C"
Completion: 2.1

====

Assay: clinical
Settings: human, plasma, intravenous, CL, Geo. Mean of individual Bayesian estimates, 2 y-<6 y (n = 26)
PARAMETER MEASURED: clearance
Numeric answer plus unit only.

Prompt: Look up and state reported clearance for Cc1cccc([C@H](C)c2cnc[nH]2)c1C [dexmedetomidine]
Completion: 265 mL/min

====

Assay: clinical
Settings: human, plasma, intravenous, Vss Mean, Dose Level 1, LD 0.25/CD 0.2 μg/kg/hr; full evaluable population
PARAMETER MEASURED: Vd (L)
Report only the number, with the unit L understood.

Prompt: Look up and state reported Vd for "Cc1cccc([C@H](C)c2cnc[nH]2)c1C"
Completion: 56.8

====

Assay: clinical
Settings: human, plasma, intravenous, Vss Median, Dose Level 4, LD 1.00/CD 2.00 μg/kg/hr; full evaluable population
PARAMETER MEASURED: Vd (L)
Report only the number, with the unit L understood.

Prompt: Look up and state reported Vd for "Cc1cccc([C@H](C)c2cnc[nH]2)c1C"
Completion: 33.1

====

Assay: clinical
Conditions: human, plasma, intravenous, 0.2 ug/kg, Vd, Group I (≥2 to <6 y); Dose Level 1 (LD 0.25/CD 0.2 μg/kg/hr); geometric mean; full evaluable population
PARAMETER MEASURED: Vd (L)
Report only the number, with the unit L understood.

Prompt: Look up and state reported Vd for "Cc1cccc([C@H](C)c2cnc[nH]2)c1C"
Completion: 36.9

====

Assay: clinical
Conditions: human, plasma, intravenous, Weight-adjusted CL, Table 30 key summary (mean); Dose Level 1, LD 0.25/CD 0.2 μg/kg/hr; full evaluable population
PARAMETER MEASURED: clearance (L/h/kg)
Report only the number, with the unit L/h/kg understood.

Prompt: Look up and state reported clearance for "Cc1cccc([C@H](C)c2cnc[nH]2)c1C"
Completion: 1

====

Experiment: clinical
Conditions: human, plasma, intravenous, Weight-Adjusted Vd, Geometric Mean (individual Bayesian estimates), Including Additional 11 Subjects; 12 months-<24 months (n = 13)
PARAMETER MEASURED: Vd (L/kg)
Report only the number, with the unit L/kg understood.

Prompt: Look up and state reported Vd for "Cc1cccc([C@H](C)c2cnc[nH]2)c1C"
Completion: 2.35

====

Test: clinical
Settings: human, plasma, intravenous, AUC0-∞ Median, Dose Level 1, LD 0.25/CD 0.2 μg/kg/hr; full evaluable population
PARAMETER MEASURED: AUC(0-inf) (ng·h/mL)
Report only the number, with the unit ng·h/mL understood.

Prompt: Look up and state reported AUC(0-inf) for "Cc1cccc([C@H](C)c2cnc[nH]2)c1C"
Completion: 1.58

====

Experiment: clinical
Conditions: human, in vivo, t1/2, Mean
PARAMETER MEASURED: half-life (h)
Report only the number, with the unit h understood.

Prompt: Look up and state reported half-life for "Cc1cccc([C@H](C)c2cnc[nH]2)c1C"
Completion: 2.33

====

Assay: clinical
Conditions: human, plasma, intravenous, t1/2, Table 30 key summary (mean); Dose Level 3, LD 1.00/CD 0.7 μg/kg/hr; full evaluable population
PARAMETER MEASURED: half-life (h)
Report only the number, with the unit h understood.

Prompt: Look up and state reported half-life for "Cc1cccc([C@H](C)c2cnc[nH]2)c1C"
Completion: 2

====

Assay: clinical
Details: human, plasma, intravenous, Cmax Mean, Dose Level 2, LD 0.50/CD 0.4 μg/kg/hr; full evaluable population
PARAMETER MEASURED: Cmax (ng/mL)
Report only the number, with the unit ng/mL understood.

Prompt: Look up and state reported Cmax for "Cc1cccc([C@H](C)c2cnc[nH]2)c1C"
Completion: 0.848

====

Test: clinical
Conditions: human, plasma, intravenous, AUC0-∞ Mean, Dose Level 4, LD 1.00/CD 2.00 μg/kg/hr; full evaluable population
PARAMETER MEASURED: AUC(0-inf) (ng·h/mL)
Report only the number, with the unit ng·h/mL understood.

Prompt: Look up and state reported AUC(0-inf) for Cc1cccc([C@H](C)c2cnc[nH]2)c1C [dexmedetomidine]
Completion: 29

====

Assay: clinical
Settings: human, plasma, intravenous, Weight-adjusted CL Median, Dose Level 3, LD 1.00/CD 0.7 μg/kg/hr; full evaluable population
PARAMETER MEASURED: clearance (mL/min/kg)
Report only the number, with the unit mL/min/kg understood.

Prompt: Look up and state reported clearance for Cc1cccc([C@H](C)c2cnc[nH]2)c1C [dexmedetomidine]
Completion: 14.7

====

Assay: clinical
Conditions: human, plasma, intravenous, 0.4 ug/kg, Vd, Group II (≥6 to <17 y); Dose Level 2 (LD 0.50/CD 0.4 μg/kg/hr); geometric mean; full evaluable population
PARAMETER MEASURED: Vd (L)
Report only the number, with the unit L understood.

Prompt: Look up and state reported Vd for "Cc1cccc([C@H](C)c2cnc[nH]2)c1C"
Completion: 61.2

====

Assay: clinical
Conditions: human, in vivo, t1/2 Median
PARAMETER MEASURED: half-life (h)
Report only the number, with the unit h understood.

Prompt: Look up and state reported half-life for "Cc1cccc([C@H](C)c2cnc[nH]2)c1C"
Completion: 1.87

====

Assay: clinical
Settings: human, plasma, intravenous, 0.7 ug/kg, CL, Group II (≥6 to <17 y); Dose Level 3 (LD 1.00/CD 0.7 μg/kg/hr); geometric mean; full evaluable population
PARAMETER MEASURED: clearance (mL/min)
Report only the number, with the unit mL/min understood.

Prompt: Look up and state reported clearance for "Cc1cccc([C@H](C)c2cnc[nH]2)c1C"
Completion: 274

====

Assay: clinical
Details: human, plasma, intravenous, Weight-Adjusted CL, Geometric Mean (individual Bayesian estimates), Including Additional 11 Subjects; 2 y-<6 y (n = 26)
PARAMETER MEASURED: clearance (mL/min/kg)
Report only the number, with the unit mL/min/kg understood.

Prompt: Look up and state reported clearance for "Cc1cccc([C@H](C)c2cnc[nH]2)c1C"
Completion: 18.5

====

Assay: clinical
Conditions: human, plasma, intravenous, 2 ug/kg, Vd, Group I (≥2 to <6 y); Dose Level 4 (LD 1.00/CD 2.00 μg/kg/hr); geometric mean; full evaluable population
PARAMETER MEASURED: Vd (L)
Report only the number, with the unit L understood.

Prompt: Look up and state reported Vd for "Cc1cccc([C@H](C)c2cnc[nH]2)c1C"
Completion: 36.3

====

Assay: clinical
Conditions: human, plasma, intravenous, Vd Mean, Dose Level 1, LD 0.25/CD 0.2 μg/kg/hr; full evaluable population
PARAMETER MEASURED: Vd (L)
Report only the number, with the unit L understood.

Prompt: Look up and state reported Vd for "Cc1cccc([C@H](C)c2cnc[nH]2)c1C"
Completion: 62

====

Experiment: clinical
Conditions: human, in vivo, CLw (weight adjusted clearance)
PARAMETER MEASURED: clearance

Prompt: Look up and state reported clearance for "Cc1cccc([C@H](C)c2cnc[nH]2)c1C"
Completion: 4.83 mL/min/kg
